system: tRNA 2'-phosphotransferase TPT1 [Candida albicans SC5314]; test: Candida albicans TPT1 inhibitors, confirmation, biochemical, fluorescence polarization, triplicate (AID 2149); details: recombinant caTPT1, fluorescence polarization, RNase T1 coupled; at 5 µM; active compounds read high
Out of some 2,400 compounds screened, about 1,800 (75%) were called active. So high a share suggests a set chosen from earlier hits. These entries were drawn from the full list.
observed.property: inhibition (%)

>>> result_number("CCN1C(=O)C(=Cc2c(C)n(CC(=O)NCC3CCCO3)c3ccccc23)C(=O)N(CC)C1=S (centres undefined)")
18.6
>>> result_number("CC(C)n1c(=O)c(C=Nc2ccc(Br)cc2)c(O)n(Cc2ccco2)c1=O")
17.1
>>> result_number("CC/C(=N\\NC(=O)c1ccccc1O)c1c(O)n(Cc2ccccc2)c(=O)[nH]c1=O")
21.9
>>> result_number("COc1ccc(N2C(=O)/C(=C/c3ccco3)C(=O)NC2=S)cc1")
27.9
